Where do these numbers come from? They come from patent US11203571B2.

assay: Human liver microsome assay; format: in vitro ADME; settings: 1 uM substrate, 0.5 mg/mL liver microsome, 2 mM NADPH, 37° C., referenced against time zero control
quantity.kind: HLM: percent unchanged after 30 min (%)

[[record]]
smiles_record = "CCOc1ccc(Oc2ccc(C(F)(F)F)cc2C(=O)Nc2cccc(S(N)(=O)=O)c2)cc1"
measured_result = 75

[[record]]
smiles_record = "Cc1ccccc1Oc1ccc(C(F)(F)F)cc1C(=O)Nc1cccc(S(N)(=O)=O)c1"
measured_result = 76

[[record]]
smiles_record = "COc1cc(F)ccc1Oc1cccc(C(F)(F)F)c1C(=O)Nc1cccc(S(N)(=O)=O)c1"
measured_result = 78

[[record]]
smiles_record = "COc1c(F)cccc1Oc1cc(C(F)(F)F)ccc1C(=O)Nc1cccc(S(N)(=O)=O)c1"
measured_result = 81

[[record]]
smiles_record = "COc1cc(Cl)ccc1Oc1cc(C(F)(F)F)ccc1C(=O)Nc1cccc(S(N)(=O)=O)c1"
measured_result = 84

[[record]]
smiles_record = "COc1ccc(Oc2ccc(C(F)(F)F)cc2C(=O)Nc2cccc(S(N)(=O)=O)c2)c(OC)c1"
measured_result = 66

[[record]]
smiles_record = "COc1cc(F)ccc1Oc1ccc(C(F)(F)F)cc1C(=O)Nc1cccc(S(N)(=O)=O)c1"
measured_result = 101

[[record]]
smiles_record = "COc1c(Cl)cccc1Oc1cc(OC(F)(F)F)ccc1C(=O)Nc1cccc(S(N)(=O)=O)c1"
measured_result = 89


====

target: UniProtKB Q9Y5Y9; assay: E-VIPR optical membrane potential assay with electrical stimulation; conditions: HEK cells expressing human Nav1.8
quantity.kind: IC50 (µM)

[[record]]
molecule = "COc1cc(F)ccc1Oc1cc(C(F)(F)C(F)(F)F)ccc1C(=O)Nc1cccc(S(N)(=O)=O)c1 [Compound 70]"
measured_result = 0.013

[[record]]
molecule = "COc1cc(Cl)ccc1Oc1ccc(C(F)(F)F)cc1C(=O)Nc1cccc(S(N)(=O)=O)c1 [Compound 35]"
measured_result = 0.005

[[record]]
molecule = "N#Cc1ccc(Oc2ccc(F)cc2Cl)c(C(=O)Nc2cccc(S(N)(=O)=O)c2)c1 [Compound 11]"
measured_result = 0.024

[[record]]
molecule = "CC(C)Oc1ccc(Oc2cc(C(F)(F)F)ccc2C(=O)Nc2cccc(S(N)(=O)=O)c2)cc1 [Compound 53]"
measured_result = 0.026

[[record]]
molecule = "COc1cc(Cl)ccc1Oc1cc(Cl)c(Cl)cc1C(=O)Nc1cccc(S(N)(=O)=O)c1 [Compound 80]"
measured_result = 0.004


(I) COc1cc(F)ccc1Oc1cc(C(F)(F)F)cc(C(F)(F)F)c1C(=O)Nc1cccc(S(N)(=O)=O)c1 [Compound 89]
(II) NS(=O)(=O)c1cccc(NC(=O)c2cc(C(F)(F)F)ccc2Oc2ccc(F)cc2)c1 [Compound 3]
## Input Lower value of IC50 belongs to which: I or II ? Write down the label of the entry you select.
## Output I

====

target: human Nav1.8 (Homo sapiens (Human), UniProt Q9Y5Y9); experiment: E-VIPR optical membrane potential assay with electrical stimulation; settings: HEK cells expressing human Nav1.8
Sequence (Q9Y5Y9 whole entry): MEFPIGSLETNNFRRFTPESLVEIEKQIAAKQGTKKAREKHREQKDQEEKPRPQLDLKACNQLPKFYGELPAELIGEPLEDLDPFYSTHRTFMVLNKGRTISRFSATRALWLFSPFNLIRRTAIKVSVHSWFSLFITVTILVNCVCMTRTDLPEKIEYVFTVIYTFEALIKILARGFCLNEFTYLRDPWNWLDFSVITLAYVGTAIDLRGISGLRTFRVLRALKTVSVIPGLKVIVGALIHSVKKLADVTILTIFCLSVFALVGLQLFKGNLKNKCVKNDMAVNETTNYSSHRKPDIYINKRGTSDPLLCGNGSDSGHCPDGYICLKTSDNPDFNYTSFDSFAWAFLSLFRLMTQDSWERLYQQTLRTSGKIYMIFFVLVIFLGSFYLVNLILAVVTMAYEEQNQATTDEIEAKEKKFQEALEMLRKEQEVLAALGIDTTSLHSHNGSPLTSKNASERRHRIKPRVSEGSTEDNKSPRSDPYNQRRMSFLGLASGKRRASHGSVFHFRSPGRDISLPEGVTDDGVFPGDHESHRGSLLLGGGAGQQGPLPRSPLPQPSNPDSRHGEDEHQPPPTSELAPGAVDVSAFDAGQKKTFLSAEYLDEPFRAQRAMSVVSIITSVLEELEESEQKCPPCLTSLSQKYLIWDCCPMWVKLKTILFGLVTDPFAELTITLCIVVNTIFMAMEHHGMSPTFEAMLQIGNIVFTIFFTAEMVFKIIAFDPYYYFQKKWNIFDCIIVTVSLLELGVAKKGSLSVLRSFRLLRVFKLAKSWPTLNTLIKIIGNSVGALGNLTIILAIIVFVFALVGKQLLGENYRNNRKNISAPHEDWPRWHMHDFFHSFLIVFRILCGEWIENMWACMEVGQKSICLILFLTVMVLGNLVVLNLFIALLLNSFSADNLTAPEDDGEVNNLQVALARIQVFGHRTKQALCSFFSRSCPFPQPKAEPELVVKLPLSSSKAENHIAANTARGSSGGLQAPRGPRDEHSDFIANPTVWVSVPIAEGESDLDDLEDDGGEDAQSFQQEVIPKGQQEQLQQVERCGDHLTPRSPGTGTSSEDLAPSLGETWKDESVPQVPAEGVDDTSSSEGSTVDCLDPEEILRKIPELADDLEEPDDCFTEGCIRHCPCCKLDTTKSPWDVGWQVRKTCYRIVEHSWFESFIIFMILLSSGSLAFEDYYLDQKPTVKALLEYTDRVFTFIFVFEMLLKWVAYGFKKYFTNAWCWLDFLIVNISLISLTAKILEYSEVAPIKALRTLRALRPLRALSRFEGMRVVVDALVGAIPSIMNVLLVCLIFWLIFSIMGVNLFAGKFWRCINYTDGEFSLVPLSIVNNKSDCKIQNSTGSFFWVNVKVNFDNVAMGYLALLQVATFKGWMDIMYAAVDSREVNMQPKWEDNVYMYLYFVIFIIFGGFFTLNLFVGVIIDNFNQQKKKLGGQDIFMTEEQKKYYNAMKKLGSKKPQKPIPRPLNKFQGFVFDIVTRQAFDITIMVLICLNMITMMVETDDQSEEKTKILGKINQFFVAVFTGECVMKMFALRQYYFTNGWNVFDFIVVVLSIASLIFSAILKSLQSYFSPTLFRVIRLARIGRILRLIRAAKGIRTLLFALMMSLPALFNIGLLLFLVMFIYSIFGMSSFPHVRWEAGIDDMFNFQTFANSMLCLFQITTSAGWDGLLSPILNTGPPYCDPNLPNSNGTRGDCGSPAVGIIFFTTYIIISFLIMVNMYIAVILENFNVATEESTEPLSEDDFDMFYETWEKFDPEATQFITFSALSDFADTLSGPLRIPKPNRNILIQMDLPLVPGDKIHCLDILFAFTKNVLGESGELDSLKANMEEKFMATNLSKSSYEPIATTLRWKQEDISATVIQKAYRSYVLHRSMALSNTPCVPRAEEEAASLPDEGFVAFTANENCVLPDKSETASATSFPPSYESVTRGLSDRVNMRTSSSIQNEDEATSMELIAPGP
pIC50: −log10 of the molar value.
quantity.kind: pIC50

In the examples that follow, each entry is paired with its recorded pIC50.
[[record]]
smiles_record = "COc1c(Cl)cccc1Oc1cc(OC(F)(F)F)ccc1C(=O)Nc1cccc(S(N)(=O)=O)c1"
measured_result = 8.15

[[record]]
smiles_record = "NS(=O)(=O)c1cccc(NC(=O)c2cc(Cl)c(Cl)cc2Oc2ccc(F)cc2)c1"
measured_result = 8.10


(I) NS(=O)(=O)c1cccc(NC(=O)c2c(Oc3ccc(OC(F)(F)F)cc3)cccc2C(F)(F)F)c1
(II) NS(=O)(=O)c1cccc(NC(=O)c2ccc(C(F)(F)F)cc2Oc2ccc(F)cc2)c1
## Input Which one would you say has the larger pIC50 value: I , or II ? Write down the label of the entry you select.
## Output I
(I: 8.05, II: 7.85)
